Target: T1, CTLA-4-hFc (immunogen A; hFc-labeled CTLA-4 extracellular domain protein) (human, UniProt P16410 36-161)
T1 construct: range 36-161; Made in HEK293 cells, purified on protein A; also called CLTA-4-hFc; CTLA-4 protein; not shown: human IgG Fc fragment (hFc) of the pCpC vector
T1 sequence (looked up): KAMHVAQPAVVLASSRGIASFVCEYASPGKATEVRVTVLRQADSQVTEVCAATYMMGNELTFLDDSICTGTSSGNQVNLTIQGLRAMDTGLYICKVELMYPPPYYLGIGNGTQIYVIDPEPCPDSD
Experiment: blocking assay, CTLA-4 protein, competitor B7.2
Quick reference for % Block at 0.064 nM among some binders
# unit: % | format: bare number

BINDER	NUMERIC VALUE
31C12F3 fully human CTLA-4 antibody (human IgG1, kappa) (antibody, V domains shown, also called mAb010) VH: QVQLVESGGGVVQPGRSLILSCAASGFTFSSYGMHWVRQAPGKGLEWVAVVWYDGSNKYYADSVKGRFTISRDNSKNTLYLQMSSLRAEDTAVYYCARGGIVVPGLFEYWGQGSLVTVSS VL: DIQMTQSPSSLSASVGDRVAITCRTSQSISNLLNWYQQKPGKAPELLIYAPSSFQSGVPSRFRGSGSGTDFTLTISSLQPEDFATYYCQQSYSTPFTFGPGTKVDIK	48.1
40C4C6 fully human CTLA-4 antibody (human IgG1, kappa) (antibody, V domains shown, also called mAb09; mAb009) VH: QVQLVESGGGVVQPGRSLRLSCAASGFTFSSYGMHWVRQAPGKGLEWVAVIWYDGRNKYYADSVKGRFTISRDNSKNTLYLQMNSLRAEDTAVYYCARASGSYSYYFDYWGQGTLVTVSS VL: DIQMTQSPSSLSASVGGRVTITCRASQSISSFLNWYQHELGKAPKLLIYGASSLQSGVPSRFSGSGSGTDFTLTISSLQPEDFATYYCQQTYSTPFTFGPGTKVDIK	52.4

Problem: May I ask what % Block at 0.064 nM has been recorded for 97A8D1 fully human CTLA-4 antibody (human IgG1, kappa) (antibody, V domains shown, also called mAb49; mAb049) VH: QVQLVESGGGVVQPGRSLRLSCVASGFTFNNYGMNWVRQAPGKGLEWVAVIWYGGRNKFYADSVKGRFTISRDNSKNTLYLEMNSLRAEDTAVYYCARADWGGWFDPWGQGTLVTVSS VL: EIVLTQSPGTLSLSPGERATLSCRASQSVSSTYLAWYQQKPGQAPRLLIHGAFSRATGIPDRFSGSGSGPDFTLTISRLEPEDFAVYYCQQYGTSPFTFGPGTKVDIK ?
Solution: 48.4
